# ASSAY_EXPLANATION: chemical genetic growth profiling, strain panel (AID 1159580);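 further: tested at 20 µM; growth read once vehicle control cultures reached saturation at 30 °C; lower values mean less growth of the strain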
# ASSAY_CONDITIONS: S. cerevisiae deletion strains, growth OD, locus YLR268W, strain sec22, active compounds read low
Screen size: about 5,500 compounds; about 2,000 (36%) were called active. About 18% were inconclusive and are not listed. The list shows a part of the results.
So basically, if normalized growth comes in under 1 it's criterion met, and if it's 1 or more it's criterion not met.

Solved cases below.
Does this compound meet the criterion normalized growth < 1? CC1CC2C3CCC4=CC(=O)C=C[C@]4(C)[C@@]3(F)[C@@H](O)C[C@]2(C)[C@@]1(O)C(=O)CO (stereo partly drawn)
criterion met

Regarding CCOC(=O)C(=O)C1(C(=O)OCC)Oc2cc(OC)cc(OC)c2C(=O)C1c1ccccc1 (stereo not drawn) , kindly confirm whether its normalized growth is beneath 1.
criterion met

In the record for `COc1ccc2cc([C@H](C)CO)ccc2c1` , is normalized growth less than 1?
criterion not met

Find out if reported normalized growth for CC(C(=O)O)c1ccc(-c2ccccc2)c(F)c1 (stereo not drawn) is less than 1
criterion met

Field: next compound
Does the reported normalized growth of CC(C(=O)O)c1cccc(Oc2ccccc2)c1 (stereo not drawn) stay below 1?
criterion not met
